Numbers sourced from paper PMC7851014.

# PROCEDURE_SUMMARY: Ibrutinib and SMT-conjugate pharmacokinetics in human subjects (plasma of patients A and B)
# ASSAY_CONDITIONS: human, 420 mg, Concentration, patient A, sample ID 6, T 0.8 h, 1xdd 420mg, group abs
PARAMETER_MEASURED: concentration at 0.8 h (nM)

INSERT INTO assay_data (compound, observed_value) VALUES
  ('Nc1ncnc2c1c(-c1ccc(Oc3ccccc3)cc1)nn2[C@@H]1CCCN(C(=O)C(O)CO)C1 (stereo partly drawn) [DHI, dihydrodiol-ibrutinib]', 48.3),
  ('Nc1ncnc2c1c(-c1ccc(Oc3ccccc3)cc1)nn2[C@@H]1CCCN(C(=O)CCSC[C@H](N)C(=O)O)C1', 5.6),
  ('Nc1ncnc2c1c(-c1ccc(Oc3ccccc3)cc1)nn2[C@@H]1CCCN(C(=O)CCSC[C@H](N)C(=O)NCC(=O)O)C1', 7.3);

====

# PROCEDURE_SUMMARY: Ibrutinib and SMT-conjugate pharmacokinetics in human subjects (plasma of patients A and B)
# ASSAY_CONDITIONS: human, 420 mg, Concentration, patient A, sample ID 13, T 2.5 h, 1xdd 420mg, group max
PARAMETER_MEASURED: concentration at 2.5 h (nM)

INSERT INTO measurements (compound, parameter_measured, unit_of_measure, observed_value) VALUES
  ('Nc1ncnc2c1c(-c1ccc(Oc3ccccc3)cc1)nn2[C@@H]1CCCN(C(=O)CCSC[C@H](N)C(=O)NCC(=O)O)C1', 'concentration at 2.5 h', 'nM', 412),
  ('Nc1ncnc2c1c(-c1ccc(Oc3ccccc3)cc1)nn2[C@@H]1CCCN(C(=O)C(O)CO)C1 (stereo partly shown) [DHI, dihydrodiol-ibrutinib]', 'concentration at 2.5 h', 'nM', 404),
  ('Nc1ncnc2c1c(-c1ccc(Oc3ccccc3)cc1)nn2[C@@H]1CCCN(C(=O)CCSC[C@H](NC(=O)CC[C@H](N)C(=O)O)C(=O)NCC(=O)O)C1', 'concentration at 2.5 h', 'nM', 1.5),
  ('Nc1ncnc2c1c(-c1ccc(Oc3ccccc3)cc1)nn2[C@@H]1CCCN(C(=O)CCSC[C@H](N)C(=O)O)C1', 'concentration at 2.5 h', 'nM', 186);

====

# PROCEDURE_SUMMARY: Ibrutinib and SMT-conjugate pharmacokinetics in human subjects (plasma of patients A and B)
# ASSAY_CONDITIONS: human, 560 mg, Concentration, patient B, sample ID 23, T 4.1 h, 1xdd 560mg, group max
Attribute: concentration at 4.1 h
PARAMETER_MEASURED: concentration at 4.1 h (nM)

INSERT INTO assay_data (compound, unit_of_measure, observed_value) VALUES
  ('Nc1ncnc2c1c(-c1ccc(Oc3ccccc3)cc1)nn2[C@@H]1CCCN(C(=O)C(O)CO)C1 (stereo partly shown) [DHI, dihydrodiol-ibrutinib]', 'nM', 468),
  ('Nc1ncnc2c1c(-c1ccc(Oc3ccccc3)cc1)nn2[C@@H]1CCCN(C(=O)CCSC[C@H](NC(=O)CC[C@H](N)C(=O)O)C(=O)NCC(=O)O)C1 [IGSH]', 'nM', 2.2),
  ('Nc1ncnc2c1c(-c1ccc(Oc3ccccc3)cc1)nn2[C@@H]1CCCN(C(=O)CCSC[C@H](N)C(=O)O)C1 [ICYS]', 'nM', 194),
  ('Nc1ncnc2c1c(-c1ccc(Oc3ccccc3)cc1)nn2[C@@H]1CCCN(C(=O)CCSC[C@H](N)C(=O)NCC(=O)O)C1 [ICGS]', 'nM', 239);

====

# PROCEDURE_SUMMARY: clinical
# ASSAY_CONDITIONS: male, human, in vivo, 140 mg
PARAMETER_MEASURED: AUC(0-t)

INSERT INTO measurements (compound, parameter_measured, observed_value) VALUES
  ('C=CC(=O)N1CCC[C@@H](n2nc(-c3ccc(Oc4ccccc4)cc3)c3c(N)ncnc32)C1 [Ibrutinib, reference compound]', 'AUC(0-t)', '0.325 µM·h');

====

# PROCEDURE_SUMMARY: Ibrutinib and SMT-conjugate pharmacokinetics in human subjects (plasma of patients A and B)
# ASSAY_CONDITIONS: human, 420 mg, Concentration, patient A, sample ID 2, T 1.4 h, 1xdd 420mg, group abs
PARAMETER_MEASURED: concentration at 1.4 h (nM)

INSERT INTO measurements (compound, observed_value) VALUES
  ('Nc1ncnc2c1c(-c1ccc(Oc3ccccc3)cc1)nn2[C@@H]1CCCN(C(=O)C(O)CO)C1 (stereo partly drawn) [DHI, dihydrodiol-ibrutinib]', 43.9),
  ('Nc1ncnc2c1c(-c1ccc(Oc3ccccc3)cc1)nn2[C@@H]1CCCN(C(=O)CCSC[C@H](N)C(=O)NCC(=O)O)C1', 6.7),
  ('Nc1ncnc2c1c(-c1ccc(Oc3ccccc3)cc1)nn2[C@@H]1CCCN(C(=O)CCSC[C@H](N)C(=O)O)C1', 5);

====

# PROCEDURE_SUMMARY: Ibrutinib and SMT-conjugate pharmacokinetics in human subjects (plasma of patients A and B)
# ASSAY_CONDITIONS: human, in vivo, 420 mg, Concentration, patient A, sample ID 21, T 0.8 h, 1xdd 420mg, group abs
PARAMETER_MEASURED: concentration at 0.8 h (nM)

INSERT INTO measurements (compound, observed_value) VALUES
  ('C=CC(=O)N1CCC[C@@H](n2nc(-c3ccc(Oc4ccccc4)cc3)c3c(N)ncnc32)C1 [Ibrutinib, reference compound]', 143);

====

# PROCEDURE_SUMMARY: Ibrutinib and SMT-conjugate pharmacokinetics in human subjects (plasma of patients A and B)
# ASSAY_CONDITIONS: human, 560 mg, Concentration, patient B, sample ID 4, T 2.8 h, 1xdd 560mg, group max
PARAMETER_MEASURED: concentration at 2.8 h (nM)

INSERT INTO assay_data (compound, observed_value) VALUES
  ('Nc1ncnc2c1c(-c1ccc(Oc3ccccc3)cc1)nn2[C@@H]1CCCN(C(=O)CCSC[C@H](N)C(=O)NCC(=O)O)C1 [ICGS]', 160),
  ('Nc1ncnc2c1c(-c1ccc(Oc3ccccc3)cc1)nn2[C@@H]1CCCN(C(=O)CCSC[C@H](N)C(=O)O)C1 [ICYS]', 92.8),
  ('Nc1ncnc2c1c(-c1ccc(Oc3ccccc3)cc1)nn2[C@@H]1CCCN(C(=O)C(O)CO)C1 (stereo partly shown) [DHI, dihydrodiol-ibrutinib]', 346),
  ('Nc1ncnc2c1c(-c1ccc(Oc3ccccc3)cc1)nn2[C@@H]1CCCN(C(=O)CCSC[C@H](NC(=O)CC[C@H](N)C(=O)O)C(=O)NCC(=O)O)C1 [IGSH]', 3.5);

====

# PROCEDURE_SUMMARY: Ibrutinib and SMT-conjugate pharmacokinetics in human subjects (plasma of patients A and B)
# ASSAY_CONDITIONS: human, in vivo, 420 mg, Concentration, patient A, sample ID 10, T 22.2 h, 1xdd 420mg, group trough
PARAMETER_MEASURED: concentration at 22.2 h (nM)

INSERT INTO measurements (compound, unit_of_measure, observed_value) VALUES
  ('C=CC(=O)N1CCC[C@@H](n2nc(-c3ccc(Oc4ccccc4)cc3)c3c(N)ncnc32)C1 [Ibrutinib, reference compound]', 'nM', 7);

====

# PROCEDURE_SUMMARY: Ibrutinib and SMT-conjugate pharmacokinetics in human subjects (plasma of patients A and B)
# ASSAY_CONDITIONS: human, 560 mg, Concentration, patient A, sample ID 3, T 0.8 h, 1xdd 560mg, group abs
Documented concentration at 0.8 h across a set of compounds
PARAMETER_MEASURED: concentration at 0.8 h (nM)

INSERT INTO measurements (compound, parameter_measured, observed_value) VALUES
  ('Nc1ncnc2c1c(-c1ccc(Oc3ccccc3)cc1)nn2[C@@H]1CCCN(C(=O)C(O)CO)C1 (stereo partly shown) [DHI, dihydrodiol-ibrutinib]', 'concentration at 0.8 h', 17.5),
  ('Nc1ncnc2c1c(-c1ccc(Oc3ccccc3)cc1)nn2[C@@H]1CCCN(C(=O)CCSC[C@H](N)C(=O)O)C1', 'concentration at 0.8 h', 3.9),
  ('Nc1ncnc2c1c(-c1ccc(Oc3ccccc3)cc1)nn2[C@@H]1CCCN(C(=O)CCSC[C@H](N)C(=O)NCC(=O)O)C1', 'concentration at 0.8 h', 9.7),
  ('Nc1ncnc2c1c(-c1ccc(Oc3ccccc3)cc1)nn2[C@@H]1CCCN(C(=O)CCSC[C@H](NC(=O)CC[C@H](N)C(=O)O)C(=O)NCC(=O)O)C1', 'concentration at 0.8 h', 0.5);

====

# PROCEDURE_SUMMARY: Ibrutinib and SMT-conjugate pharmacokinetics in human subjects (plasma of patients A and B)
# ASSAY_CONDITIONS: human, in vivo, 560 mg, Concentration, patient B, sample ID 7, T 4.1 h, 1xdd 560mg, group max
PARAMETER_MEASURED: concentration at 4.1 h (nM)

INSERT INTO assay_data (molecule, observed_value) VALUES
  ('C=CC(=O)N1CCC[C@@H](n2nc(-c3ccc(Oc4ccccc4)cc3)c3c(N)ncnc32)C1 [Ibrutinib, reference compound]', 360);
